Listed compounds paired with reported pIC50
# Tested on: UniProt Q9HBH9
# Experimental protocol: Mnk2a in vitro kinase assay (indirect fluorescence polarization)
# Details: GST-Mnk2a pre-activated with ERK2, 20 μM ATP, 30 μM substrate peptide; read-out: MNK2 IC50
pIC50: −log10 of the molar value.
Assay readout: pIC50

compound="Cc1c(C(=O)NCc2cccnc2)sc2ncnc(Nc3ccc(F)cc3OC3CCOCC3)c12 [Example 213]" tested_on="UniProt Q9HBH9" observed_value=7.68
compound="CC(=O)N1CC[C@@H](Oc2cc(F)ccc2Nc2ncnc3sc(C(N)=O)c(C)c23)C1 [Example 98]" tested_on="UniProt Q9HBH9" observed_value=7.03
compound="Cc1c(C(=O)NCCO)sc2ncnc(Nc3ccc(F)cc3O[C@@H]3CCCN(S(C)(=O)=O)C3)c12 [Example 86]" tested_on="UniProt Q9HBH9" observed_value=8.22
compound="Cc1c(C(=O)NCCS(C)(=O)=O)sc2ncnc(Nc3ccc(F)cc3OC3CCOCC3)c12 [Example 180]" tested_on="UniProt Q9HBH9" observed_value=7.48
compound="Cc1c(C(=O)N[C@@H]2CCC[C@H]2O)sc2ncnc(Nc3ccc(F)cc3OC3CCOCC3)c12 [Example 255]" tested_on="UniProt Q9HBH9" observed_value=7.66
compound="Cc1c(C(=O)NCCc2cccnc2)sc2ncnc(Nc3ccc(F)cc3OC3CCOCC3)c12 [Example 207]" tested_on="UniProt Q9HBH9" observed_value=7.39
compound="Cc1c(C(=O)NCCNS(C)(=O)=O)sc2ncnc(Nc3ccc(F)cc3OC3CCOCC3)c12 [Example 189]" tested_on="UniProt Q9HBH9" observed_value=7.60
compound="Cc1c(C(=O)NC(CO)CO)sc2ncnc(Nc3ccc(F)cc3OC3CCOCC3)c12 [Example 153]" tested_on="UniProt Q9HBH9" observed_value=6.95

----------
# Tested on: human Mnk2a (Homo sapiens)
# Sequence (Q9HBH9 whole entry): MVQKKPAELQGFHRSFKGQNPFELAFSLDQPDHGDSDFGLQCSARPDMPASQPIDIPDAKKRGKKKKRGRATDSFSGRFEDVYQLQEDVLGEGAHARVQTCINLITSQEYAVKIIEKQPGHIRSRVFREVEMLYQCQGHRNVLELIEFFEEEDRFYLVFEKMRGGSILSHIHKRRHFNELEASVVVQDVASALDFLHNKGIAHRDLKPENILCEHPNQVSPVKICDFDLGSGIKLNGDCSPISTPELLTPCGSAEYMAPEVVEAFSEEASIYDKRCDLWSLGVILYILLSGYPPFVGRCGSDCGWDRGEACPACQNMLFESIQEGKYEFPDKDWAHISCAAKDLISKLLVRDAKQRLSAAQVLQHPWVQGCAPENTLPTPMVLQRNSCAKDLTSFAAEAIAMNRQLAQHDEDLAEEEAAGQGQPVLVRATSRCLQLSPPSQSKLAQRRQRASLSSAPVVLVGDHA
# Experimental protocol: Mnk2a in vitro kinase assay (indirect fluorescence polarization)
# Details: GST-Mnk2a pre-activated with ERK2, 20 μM ATP, 30 μM substrate peptide; read-out: MNK2 IC50
Assay readout: IC50 (nM)

molecule=Cc1c(C(N)=O)sc2ncnc(Nc3ccc(F)cc3O[C@H]3C[C@@H](CO)N(S(C)(=O)=O)C3)c12 unit_of_measure=nM observed_value=420
molecule="CCN(CC)CC(O)CNC(=O)c1sc2ncnc(Nc3ccc(F)cc3OC3CCOCC3)c2c1C (centres unmarked)" unit_of_measure=nM observed_value=41
molecule=Cc1ccc(Nc2ncnc3sc(C(N)=O)c(C)c23)c(O[C@H]2CCCNC2)c1 unit_of_measure=nM observed_value=80
molecule=Cc1c(C(=O)NCc2ncc[nH]2)sc2ncnc(Nc3ccc(F)cc3OC3CCOCC3)c12 unit_of_measure=nM observed_value=18
molecule=Cc1c(C(=O)NCC(C)(C)CN(C)C)sc2ncnc(Nc3ccc(F)cc3OC3CCOCC3)c12 unit_of_measure=nM observed_value=215
molecule="Cc1c(C(=O)NCCOc2ccccc2)sc2ncnc(Nc3ccc(F)cc3OC3CCCNC3)c12 (centres unmarked)" unit_of_measure=nM observed_value=64
molecule=Cc1c(C(=O)Nc2ccn(C)n2)sc2ncnc(Nc3ccc(F)cc3O[C@H]3CCCNC3)c12 unit_of_measure=nM observed_value=21
molecule=CCOCCNC(=O)c1sc2ncnc(Nc3ccc(F)cc3OC3CCOCC3)c2c1C unit_of_measure=nM observed_value=59
